Below, each entry is listed alongside its reported inhibition at 30 µM.
experimental_target: RET kinase (Homo sapiens, UniProt P07949)
Sequence (P07949 29-1114): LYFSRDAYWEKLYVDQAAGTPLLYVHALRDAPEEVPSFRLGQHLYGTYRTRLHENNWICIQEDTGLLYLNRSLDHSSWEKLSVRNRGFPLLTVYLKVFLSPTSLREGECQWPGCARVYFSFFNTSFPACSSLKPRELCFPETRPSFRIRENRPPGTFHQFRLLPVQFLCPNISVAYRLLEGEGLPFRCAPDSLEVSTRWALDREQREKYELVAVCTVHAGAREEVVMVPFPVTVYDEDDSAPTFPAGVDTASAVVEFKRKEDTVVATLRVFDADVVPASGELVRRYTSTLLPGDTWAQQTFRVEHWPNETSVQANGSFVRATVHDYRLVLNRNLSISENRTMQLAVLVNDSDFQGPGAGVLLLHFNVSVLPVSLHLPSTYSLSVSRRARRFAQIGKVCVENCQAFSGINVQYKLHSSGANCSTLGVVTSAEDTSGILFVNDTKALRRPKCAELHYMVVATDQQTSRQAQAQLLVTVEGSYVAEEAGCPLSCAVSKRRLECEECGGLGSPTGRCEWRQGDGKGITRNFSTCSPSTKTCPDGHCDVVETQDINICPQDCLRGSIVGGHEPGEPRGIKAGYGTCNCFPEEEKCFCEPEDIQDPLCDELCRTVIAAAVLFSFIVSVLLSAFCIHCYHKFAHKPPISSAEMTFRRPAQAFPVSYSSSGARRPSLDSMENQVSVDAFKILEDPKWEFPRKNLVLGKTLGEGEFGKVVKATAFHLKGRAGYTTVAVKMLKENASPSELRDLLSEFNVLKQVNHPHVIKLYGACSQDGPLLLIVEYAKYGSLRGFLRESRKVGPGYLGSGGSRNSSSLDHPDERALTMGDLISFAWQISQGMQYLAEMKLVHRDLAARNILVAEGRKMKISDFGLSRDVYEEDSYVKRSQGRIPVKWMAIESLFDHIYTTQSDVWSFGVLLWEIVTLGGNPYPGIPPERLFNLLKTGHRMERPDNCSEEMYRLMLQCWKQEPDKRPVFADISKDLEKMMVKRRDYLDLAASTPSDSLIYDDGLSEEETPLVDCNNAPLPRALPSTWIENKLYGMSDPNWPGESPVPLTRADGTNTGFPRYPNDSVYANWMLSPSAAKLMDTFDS
experiment_notes: RET Kinase Activity Assay
Assay type: biochemical
conditions_used: read-out: Ret, % INH, at 30 uM
Experimental: The disclosed compounds were assayed for their ability to inhibit the activity of RET kinase. Nunc Maxwasorb plates were coated with streptavidin by overnight incubation with 100 μL per well of 1 μg/mL Streptavidin in DPBS. […] From the reaction plate, 50 μL was transferred to the streptavidin coated plate. […] The fluorescent readout was initiated by the addition of 100 μL/well of Attophos reagent (6 mg/10 mL). The reading was done on the Perkin Elmer Envision system.
test_readout: inhibition at 30 µM

>>> readout_value("COc1ccccc1CN1CCN(c2nc(N)nc3[nH]ncc23)Cc2ccccc21 [Compound 10]")
"< 50%"
>>> readout_value("COc1cccc(CN2CCN(c3nc(N)nc4[nH]cnc34)Cc3ccccc32)c1 [Compound 2]")
"50 to 79%"
>>> readout_value("Nc1nc(N2CCN(Cc3ccccc3Cl)c3ccccc3C2)c2nc[nH]c2n1 [Compound 13]")
"< 50%"
>>> readout_value("Cc1ccccc1CN1CCN(c2nc(N)nc3[nH]ncc23)Cc2ccccc21 [Compound 12]")
"< 50%"
>>> readout_value("COc1cc2c(cc1OC)C(c1cccc(Cl)c1F)N(c1nc(N)nc3[nH]cnc13)CC2 (centres unmarked) [Compound 49]")
"< 50%"

Data provenance is patent US8343961B2.
